Assay: DHE and HMC pharmacokinetics, oral, mice
Type: in vivo, female BALB/c mice
Conditions: female, BALB/c, mouse, plasma, po, 50 mg/kg p.o., Time 4, read-out: Free plasma concentration
endpoint_name: concentration at 4 hr (nM)
Give bare numbers, in nM.

Req: Recorded concentration at 4 hr of COc1ccc(C2c3ccc(O)cc3OCC2c2ccc(O)cc2)cc1 (stereo not shown) , please.
Resp: 190

====

System: MM200 melanoma cell line
Test: Proliferation assay (MTT)
Format: cell-based
Conditions: Table 15; melanoma MM200, monotherapy; read-out: IC50
endpoint_name: pIC50
One number for each entry, as −log10 of the molar value.

{"columns": ["compound", "pIC50"],
 "data": [
  ["Oc1ccc(C2COc3cc(O)ccc3C2c2ccc(O)cc2)cc1 (centres unmarked)", 6.18]
]}

For the next question, use this compound.
Req: Recorded pIC50 of COc1ccc(C2c3ccc(O)cc3OCC2c2ccc(O)cc2)cc1 (centres unmarked) , please.
Resp: 5.95
